Data origin: ChEMBL document CHEMBL1201862

Test system: SNB-75
Assay: NCI tumour cell line growth inhibition, 48 h
Active and inactive are the calls of the source. Cut-off read from the data, not from the text of the source: active = GI50 up to about 1.1 µM and inactive = higher.
I'd be grateful if you could share measured GI50 for these entries.

Solved entries:
test_smiles: CCC1(CC)C(=O)NC(=S)N=C1N
GI50: 57 µM (inactive)
--
test_smiles: C=CCN(C(C)=O)c1cc(OCc2ccccc2)c2c(c1)c(C)cn2S(=O)(=O)c1ccccc1
GI50: 6.18 µM (inactive)
--
test_smiles: C=C(COCO)C(C)=O
GI50: 16.3 µM (inactive)
--
test_smiles: CCC[C@H]1C(=O)N=C(N)N1C(=O)OCc1ccccc1
GI50: > 100 µM (inactive)
--
test_smiles: COc1ccc(/C(Cl)=C(\C=O)c2ccc(OC)c(OC)c2)cc1OC
GI50: 22.9 µM (inactive)

Okay, now this compound:
Measured GI50, O=C1Nc2ccc(Br)cc2C1=Nc1cccnc1 : > 100 µM (inactive)

----------
System: Hs-578T
Test: NCI tumour cell line growth inhibition, 48 h
Active and inactive are the calls of the source. Cut-off read from the data, not from the text of the source: active = GI50 up to about 1.1 µM and inactive = higher.
Pick from 1 = active, -1 = inactive when you respond.

molecule: CC1=C(C(=O)Nc2cccc3c2C(=O)NC3=O)CC(C(=O)Nc2cccc3c2C(=O)NC3=O)=C(C)N1
assayed_target: Hs-578T
category_label: -1
//
molecule: C/C1=C/C(C)CC(C)OC(=O)C(C)NC(=O)C(Cc2ccc(O)c(I)c2)N(C)C(=O)CNC(=O)C(C)C1 (stereo not given)
assayed_target: Hs-578T
category_label: 1

Outcome logged for COc1ccc(C2CC3(c4ccccc4)ON=C(c4ccccc4)N3c3ccccc3S2)cc1 (stereo not given) in this assay:
-1

Outcome logged for CCN(CC)/[N+]([O-])=N/OCOC in this assay:
-1

----------
Test system: CCRF-CEM
Experiment: NCI tumour cell line growth inhibition, 48 h
Active and inactive are the calls of the source. No stated cut-off is given here; in the data, active = GI50 up to about 1.1 µM and inactive = higher.
Pick from true (1) (active), false (0) (inactive) when you respond.

Example entries begin here.
compound: CN1CC[C@@]2(c3cccc(O)c3)CC(=O)/C(=C/c3ccccc3)[C@H]1C2.[O-][Cl+3]([O-])([O-])O
category_label: false (0)

compound: Cc1ccc(-c2c3c(n(C4OC(CO)C(O)C(O)C4O)c(=S)c2C#N)CC(C)(C)CC3=O)cc1 (configuration not stated)
category_label: false (0)

Outcome logged for CC(=O)OCC1OC(NC(=S)CCSc2nc3ccccc3c(=O)n2-c2ccccc2)C(OC(C)=O)C(OC(C)=O)C1OC(C)=O (configuration not stated) in this assay:
false (0)

Outcome logged for COc1ccc2c(c1OC)OC[C@@H](C1=CC(=O)C=C(O)C1=O)C2 in this assay:
false (0)

Outcome logged for CC1=CC(=O)NP(=O)(Oc2ccc(C)cc2)N1 (configuration not stated) in this assay:
false (0)

Outcome logged for c1csc(-c2nccc3c2[nH]c2ccccc23)c1 in this assay:
false (0)

Outcome logged for COC(c1ccccc1)C(c1ccccc1)N1CCOCC1 (configuration not stated) in this assay:
false (0)

Outcome logged for O=C(CSc1nnc(Cc2ccccc2)o1)Nc1cccc([N+](=O)[O-])c1 in this assay:
false (0)

Outcome logged for COc1cccc(CC(=O)N2CCN(CCCc3ccccc3)CC2)c1 in this assay:
false (0)

Outcome logged for CN(CCN)[C@H](CSSC[C@@H](c1ccccc1O)N(C)CCN)c1ccccc1O in this assay:
false (0)

Outcome logged for N#CC(c1ccccc1)N(CCOCCOCCN(C(=O)c1ccccc1)C(C#N)c1ccccc1)C(=O)c1ccccc1 (configuration not stated) in this assay:
false (0)

Outcome logged for CC1(C)C=[N+]([O-])C(C)(C)N1O in this assay:
false (0)

Outcome logged for COc1ccc(C2c3c(n(C)c(=O)n(C)c3=O)OC(N(C)C)(N(C)C)C2(F)F)cc1 (configuration not stated) in this assay:
false (0)

Outcome logged for CC1=NN(c2cccc(Cl)c2)C(=N/c2nc3ccccc3s2)/C1=C\C=C\c1ccccc1 in this assay:
false (0)
